Please provide measured pIC50 for the entries that follow.
# System: T lymphocyte cells
# testMethodNotes: ConA-induced T-cell proliferation ([3H]-thymidine uptake)
# Type: cell-based, BALB/c mice
# conditionContext: Mus musculus, spleen cells stimulated with 5 µg/mL ConA, read-out: Con A-Induced T-Cell Proliferation IC50
One number for each entry, as −log10 of the molar value.

| compound | assayTarget | readoutValue |
| --- | --- | --- |
| CC(=CC(O)CC12COC3(C)CCC1CC32)C(=O)O (centres unmarked) | T lymphocyte cells | 6.01 |

Task: Supply pIC50 value. Item: C=C1CCC2CC1C2(COC(C)=O)CC(O)C=C(C)C(=O)O (centres unmarked)
Result: 4.50
